Settings: buffer; pH 7.4; 200.0 µM
quantity: solubility kinetic (µg/mL)
Note: unit µg/mL is implicit; provide only the numeric part.

> print(dat)
                                    compound  recorded.measurement
 1  CC(=O)N(CCc1ccccc1)Cc1cc2ccc(C)c(C)c2[nH]c1=O                  17.4
 2  C=CCN(c1ccccc1OC)S(=O)(=O)c1cccc(C(=O)OCC(=O)N2CC(C)OC(C)C2)c1 (stereo not drawn)                  52.7
 3    O=C(NC1CCCC1)c1cc(-c2ccccc2)nc2ccccc12                   1.4
 4  NS(=O)(=O)c1ccc(NC(=O)Nc2ccc(S(N)(=O)=O)cc2)cc1                   9.7
 5          O=c1[nH]c2ccccc2nc1Cc1ccc(Cl)cc1                   0.9
 6  CCCN(CCC)CC(O)Cn1c2ccccc2c2ccccc21 (stereo not drawn)                  12.5
 7   C=CCNc1oc(-c2cccs2)nc1S(=O)(=O)c1ccccc1                  16.8
 8  CC(NC(=O)c1ccc(Br)o1)C1CC2CCC1C2 (stereo not drawn)                  29.3
 9           COC(=O)c1cccc(NC(=O)c2ccccc2)c1                  35.7
10        CCCN(Cc1ccccc1)C(=S)Nc1ccc(OCC)cc1                  17.9

For `Cc1cccc(NC(=O)c2cc([N+](=O)[O-])ccc2N2CCCCC2)n1` the compound record lists solubility kinetic as 0.4

solubility kinetic for `CC(C)C(=O)Nc1c(-c2cccc(Cl)c2)c(=O)c2ccccc2n1C` is 10.1
